pIC50: −log10 of the molar value.
Literature survey of pIC50 (system: Hepatocyte growth factor receptor (Homo sapiens)).

Query: Look up pIC50 for this compound: CN(C)CC1CCC(COc2cnc(-c3cccc(Cn4nc(-c5cnn(C)c5)ccc4=O)c3)nc2)CC1 (stereo not drawn)
Result: 6.00 to 8.00

Query: Look up pIC50 for this compound: Fc1ccccc1-c1ccc2nnc(Cc3ccc4ncccc4c3)n2n1
Result: 6.00 to 7.00

Query: Look up pIC50 for this compound: Cn1ncc2ccc(-c3n[nH]c4c3Cc3sc(-c5cccc(CN6CCOCC6)c5)cc3-4)cc21
Result: < 6.00

Query: Look up pIC50 for this compound: O=C(c1cccc(Nc2nccc(-c3ccc(Br)s3)n2)c1)N1CCN(CCO)CC1
Result: 5.30 to 6.00

Query: Look up pIC50 for this compound: CN(c1ccc(-c2cc3c(s2)Cc2c(-c4ccc5cnn(C)c5c4)n[nH]c2-3)cc1)C1CCOCC1
Result: < 6.00

Query: Look up pIC50 for this compound: CS(=O)(=O)c1cccc(-c2cnc3[nH]cc(C(=O)c4cc(O)ccc4F)c3c2)c1
Result: ≥ 5.00
